# Protocol details: APAP-GLUC concentration in plasma of pediatric patients after APAP administration (HPLC)
# Assay type: in vivo, human
# Test conditions: human, plasma, NASH, 2 h after APAP; read-out: Median plasma concentration
Value type: concentration at 2 h (µM)
Give bare numbers, in µM.

Consider the molecule CC(=O)Nc1ccc(O[C@@H]2O[C@H](C(=O)O)[C@@H](O)[C@H](O)[C@H]2O)cc1 [APAP-GLUC, acetaminophen (APAP)-glucuronide] and give its measured concentration at 2 h.
66.4

* * *

# Protocol details: APAP-GLUC concentration in plasma of pediatric patients after APAP administration (HPLC)
# Type: in vivo, human
# Test conditions: human, plasma, Normal, 3 h after APAP; read-out: Mean plasma concentration
Value type: concentration at 3 h (µM)
One number for each entry, in µM.

Consider the molecule CC(=O)Nc1ccc(O[C@@H]2O[C@H](C(=O)O)[C@@H](O)[C@H](O)[C@H]2O)cc1 [APAP-GLUC, acetaminophen (APAP)-glucuronide] and give its measured concentration at 3 h.
46.7
